Sourced from patent US20240245677A1

Test: Pharmacokinetic study in male Sprague Dawley rats
Format: in vivo, rat
Settings: male, Sprague Dawley, rat, plasma, intravenous, 2 mg/kg, 2 mg/kg IV, 8 h; read-out: Plasma Concentration, Average
Metric: concentration at 8 h (ng/mL)
One number for each entry, in ng/mL.

Give the reported value of concentration at 8 h for this record: COc1cc(-c2cn(C)c(=O)c(C)c2C)cc(OC)c1CN1CC[C@H](N2CCN(c3ccc(N[C@H]4CCC(=O)NC4=O)cc3F)CC2)C(F)(F)C1 [Compound 1] 61.9

----------
Experiment: Pharmacokinetic study in male Sprague Dawley rats
Assay type: in vivo, rat
Conditions: rat, plasma; 10 mg/kg PO, Male Sprague Dawley Rats, mean
Method: The pharmacokinetic (PK) profile in plasma of Compound 1 was determined in male Sprague Dawley rats following single dose intravenous (IV) (2 mg/kg) and per os (PO) (10 mg/kg) administration. […] All animals were housed in cages with clean bedding and maintained and monitored for good health and at the discretion of the laboratory animal veterinarian. […]
Metric: bioavailability (%)
One number for each entry, in %.

Give the reported value of bioavailability for this record: COc1cc(-c2cn(C)c(=O)c(C)c2C)cc(OC)c1CN1CC[C@H](N2CCN(c3ccc(N[C@H]4CCC(=O)NC4=O)cc3F)CC2)C(F)(F)C1 [Compound 1] 82.8

----------
Assay: Pharmacokinetic study in male Sprague Dawley rats
Format: in vivo, rat
Conditions: rat, plasma; 2 mg/kg IV, Male Sprague Dawley Rats, mean
Metric: C0 (ng/mL)
Answers are plain numbers, in ng/mL.

Give the reported value of C0 for this record: `COc1cc(-c2cn(C)c(=O)c(C)c2C)cc(OC)c1CN1CC[C@H](N2CCN(c3ccc(N[C@H]4CCC(=O)NC4=O)cc3F)CC2)C(F)(F)C1` 879

----------
Assay: Pharmacokinetic study in male Sprague Dawley rats
Assay type: in vivo, rat
Conditions: male, Sprague Dawley, rat, plasma, intravenous, 2 mg/kg, 2 mg/kg IV, 0.33 h; read-out: Plasma Concentration, Average
Metric: concentration at 0.33 h (ng/mL)
Numbers only, in ng/mL.

Give the reported value of concentration at 0.33 h for this record: `COc1cc(-c2cn(C)c(=O)c(C)c2C)cc(OC)c1CN1CC[C@H](N2CCN(c3ccc(N[C@H]4CCC(=O)NC4=O)cc3F)CC2)C(F)(F)C1` 395

----------
Assay: Pharmacokinetic study in male Sprague Dawley rats
Assay type: in vivo, rat
Conditions: male, Sprague Dawley, rat, plasma, oral, 10 mg/kg, 10 mg/kg PO, Male Sprague Dawley Rats, 24 h, Rat-1; read-out: Plasma Concentration (ng/mL) Rat-1
Metric: concentration at 24 h (ng/mL)
One number for each entry, in ng/mL.

Give the reported value of concentration at 24 h for this record: `COc1cc(-c2cn(C)c(=O)c(C)c2C)cc(OC)c1CN1CC[C@H](N2CCN(c3ccc(N[C@H]4CCC(=O)NC4=O)cc3F)CC2)C(F)(F)C1` 21.5

----------
Assay: Pharmacokinetic study in male Sprague Dawley rats
Type: in vivo, rat
Conditions: male, Sprague Dawley, rat, plasma, oral, 10 mg/kg, 10 mg/kg PO, Male Sprague Dawley Rats, 1 h, Rat-2; read-out: Plasma Concentration (ng/mL) Rat-2
Metric: concentration at 1 h (ng/mL)
One number for each entry, in ng/mL.

Give the reported value of concentration at 1 h for this record: `COc1cc(-c2cn(C)c(=O)c(C)c2C)cc(OC)c1CN1CC[C@H](N2CCN(c3ccc(N[C@H]4CCC(=O)NC4=O)cc3F)CC2)C(F)(F)C1` 416

----------
Assay: Pharmacokinetic study in male Sprague Dawley rats
Format: in vivo, rat
Conditions: rat, plasma; 10 mg/kg PO, Male Sprague Dawley Rats, mean
Metric: MRT last (h)
Answers are plain numbers, in h.

Give the reported value of MRT last for this record: COc1cc(-c2cn(C)c(=O)c(C)c2C)cc(OC)c1CN1CC[C@H](N2CCN(c3ccc(N[C@H]4CCC(=O)NC4=O)cc3F)CC2)C(F)(F)C1 [Compound 1] 7.34

----------
Experiment: Rat Hepatocyte Stability Assay
Assay type: in vitro ADME
Settings: Sprague-Dawley, cryopreserved hepatocytes
Metric: half-life at 1 µM

Give the reported value of half-life at 1 µM for this record: COc1cc(-c2cn(C)c(=O)c(C)c2C)cc(OC)c1CN1CC[C@H](N2CCN(c3ccc(N[C@H]4CCC(=O)NC4=O)cc3F)CC2)C(F)(F)C1 [Compound 1] > 2 h

----------
Experiment: HepG2 in vitro viability assay (CellTiter-Glo, 72 hours)
Type: cell-based, human
Details: human, HepG2 cells; 3.17 nM, 72-hour treatment
Metric: viability at 72 h, 0.00317 µM (%)
One number for each entry, in %.

Give the reported value of viability at 72 h, 0.00317 µM for this record: `COc1cc(-c2cn(C)c(=O)c(C)c2C)cc(OC)c1CN1CC[C@H](N2CCN(c3ccc(N[C@H]4CCC(=O)NC4=O)cc3F)CC2)C(F)(F)C1` 97.7

----------
Assay: Pharmacokinetic study in male Sprague Dawley rats
Assay type: in vivo, rat
Conditions: male, Sprague Dawley, rat, plasma, oral, 10 mg/kg, 10 mg/kg PO, Male Sprague Dawley Rats, 0.33 h, Rat-1; read-out: Plasma Concentration (ng/mL) Rat-1
Experimental: The pharmacokinetic (PK) profile in plasma of Compound 1 was determined in male Sprague Dawley rats following single dose intravenous (IV) (2 mg/kg) and per os (PO) (10 mg/kg) administration. […] All animals were housed in cages with clean bedding and maintained and monitored for good health and at the discretion of the laboratory animal veterinarian. […]
Metric: concentration at 0.33 h (ng/mL)
Numbers only, in ng/mL.

Give the reported value of concentration at 0.33 h for this record: `COc1cc(-c2cn(C)c(=O)c(C)c2C)cc(OC)c1CN1CC[C@H](N2CCN(c3ccc(N[C@H]4CCC(=O)NC4=O)cc3F)CC2)C(F)(F)C1` 215

----------
Assay: Pharmacokinetic study in male Sprague Dawley rats
Assay type: in vivo, rat
Conditions: male, Sprague Dawley, rat, plasma, intravenous, 2 mg/kg, 2 mg/kg IV, 1 h; read-out: Plasma Concentration, Average
Metric: concentration at 1 h (ng/mL)
Answers are plain numbers, in ng/mL.

Give the reported value of concentration at 1 h for this record: COc1cc(-c2cn(C)c(=O)c(C)c2C)cc(OC)c1CN1CC[C@H](N2CCN(c3ccc(N[C@H]4CCC(=O)NC4=O)cc3F)CC2)C(F)(F)C1 [Compound 1] 202

----------
Experiment: Dog Hepatocyte Stability Assay
Type: in vitro ADME
Conditions: beagle, cryopreserved hepatocytes, read-out: CL int cells
Experimental: The metabolic stability of Compound 1 was evaluated using cryopreserved hepatocytes from mice, rats, dogs, cynomolgus monkeys, and humans. 50 μL of 1 mM intermediate solutions for each test compound was prepared by adding 5 μL of 10 mM stock solution to 45 μL of a 1:1 mixture of water and acetonitrile. […] Cell viability was determined using the trypan blue method. […]
Metric: hepatocyte CLint at 1 µM

Give the reported value of hepatocyte CLint at 1 µM for this record: `COc1cc(-c2cn(C)c(=O)c(C)c2C)cc(OC)c1CN1CC[C@H](N2CCN(c3ccc(N[C@H]4CCC(=O)NC4=O)cc3F)CC2)C(F)(F)C1` 1.49 µL/min/1e6 cells

----------
Assay: Pharmacokinetic study in male Sprague Dawley rats
Format: in vivo, rat
Settings: male, Sprague Dawley, rat, plasma, oral, 10 mg/kg, 10 mg/kg PO, Male Sprague Dawley Rats, 2 h, Rat-3; read-out: Plasma Concentration (ng/mL) Rat-3
Metric: concentration at 2 h

Give the reported value of concentration at 2 h for this record: `COc1cc(-c2cn(C)c(=O)c(C)c2C)cc(OC)c1CN1CC[C@H](N2CCN(c3ccc(N[C@H]4CCC(=O)NC4=O)cc3F)CC2)C(F)(F)C1` 594 ng/mL

----------
Assay: Pharmacokinetic study in male CD1 mice
Type: in vivo, mouse
Conditions: male, CD1, mouse, plasma, oral, 10 mg/kg, 10 mg/kg PO, 2 h; read-out: Plasma Concentration, individual mice
Metric: concentration at 2 h
Phrase the answer as number then unit, nothing more needed.

Give the reported value of concentration at 2 h for this record: `COc1cc(-c2cn(C)c(=O)c(C)c2C)cc(OC)c1CN1CC[C@H](N2CCN(c3ccc(N[C@H]4CCC(=O)NC4=O)cc3F)CC2)C(F)(F)C1` 3150 ng/mL

----------
Experiment: Pharmacokinetic study in male CD1 mice
Type: in vivo, mouse
Conditions: mouse, plasma; male CD1 mice, 10 mg/kg PO, Mean
Procedure: The pharmacokinetic (PK) profile in plasma of Compound 1 was determined in male CD1 mice following single dose intravenous (IV) (2 mg/kg) and per os (PO) (10 mg/kg) administration. […] All animals were housed in cages with clean bedding and maintained and monitored for good health and at the discretion of the laboratory animal veterinarian. […] After blood collection from each animal, the sample from that animal was recorded in the sample collection sheet. […]
Metric: MRT last
Phrase the answer as number then unit, nothing more needed.

Give the reported value of MRT last for this record: `COc1cc(-c2cn(C)c(=O)c(C)c2C)cc(OC)c1CN1CC[C@H](N2CCN(c3ccc(N[C@H]4CCC(=O)NC4=O)cc3F)CC2)C(F)(F)C1` 5.38 h
